target: recombinant PI3Kδ kinase (Homo sapiens, UniProt O00329); experiment: Cell free PI3Kδ kinase activity, ADP-Glo chemiluminescence assay; type: biochemical; conditions: read-out: PI3K IC50 δ
Sequence (O00329 whole entry): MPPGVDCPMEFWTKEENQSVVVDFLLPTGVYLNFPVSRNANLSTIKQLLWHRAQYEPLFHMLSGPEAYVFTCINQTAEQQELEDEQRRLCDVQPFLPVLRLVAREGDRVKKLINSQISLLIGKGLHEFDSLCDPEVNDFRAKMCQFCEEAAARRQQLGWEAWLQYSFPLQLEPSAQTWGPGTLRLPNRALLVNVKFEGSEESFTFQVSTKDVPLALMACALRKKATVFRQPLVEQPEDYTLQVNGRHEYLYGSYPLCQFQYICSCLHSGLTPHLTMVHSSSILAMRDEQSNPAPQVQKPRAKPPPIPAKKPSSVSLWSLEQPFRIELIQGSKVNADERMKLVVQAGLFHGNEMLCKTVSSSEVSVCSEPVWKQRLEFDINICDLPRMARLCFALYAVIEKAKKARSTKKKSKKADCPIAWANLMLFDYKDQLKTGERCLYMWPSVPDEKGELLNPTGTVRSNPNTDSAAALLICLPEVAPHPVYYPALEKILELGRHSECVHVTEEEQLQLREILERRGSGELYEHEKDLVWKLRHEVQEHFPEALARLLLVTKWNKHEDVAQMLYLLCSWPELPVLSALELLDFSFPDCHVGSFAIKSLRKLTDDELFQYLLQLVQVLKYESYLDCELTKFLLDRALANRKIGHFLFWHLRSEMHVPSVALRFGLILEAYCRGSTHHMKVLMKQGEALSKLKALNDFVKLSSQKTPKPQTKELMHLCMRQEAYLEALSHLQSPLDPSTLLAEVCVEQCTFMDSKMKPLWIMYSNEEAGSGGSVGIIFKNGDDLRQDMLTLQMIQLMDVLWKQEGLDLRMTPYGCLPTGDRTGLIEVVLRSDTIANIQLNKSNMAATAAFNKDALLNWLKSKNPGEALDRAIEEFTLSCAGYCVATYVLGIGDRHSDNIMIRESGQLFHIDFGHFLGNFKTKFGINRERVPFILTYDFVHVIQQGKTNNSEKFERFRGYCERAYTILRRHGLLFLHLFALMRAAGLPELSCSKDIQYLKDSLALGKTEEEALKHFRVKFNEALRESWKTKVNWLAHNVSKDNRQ
Sequence (P27986 whole entry partner): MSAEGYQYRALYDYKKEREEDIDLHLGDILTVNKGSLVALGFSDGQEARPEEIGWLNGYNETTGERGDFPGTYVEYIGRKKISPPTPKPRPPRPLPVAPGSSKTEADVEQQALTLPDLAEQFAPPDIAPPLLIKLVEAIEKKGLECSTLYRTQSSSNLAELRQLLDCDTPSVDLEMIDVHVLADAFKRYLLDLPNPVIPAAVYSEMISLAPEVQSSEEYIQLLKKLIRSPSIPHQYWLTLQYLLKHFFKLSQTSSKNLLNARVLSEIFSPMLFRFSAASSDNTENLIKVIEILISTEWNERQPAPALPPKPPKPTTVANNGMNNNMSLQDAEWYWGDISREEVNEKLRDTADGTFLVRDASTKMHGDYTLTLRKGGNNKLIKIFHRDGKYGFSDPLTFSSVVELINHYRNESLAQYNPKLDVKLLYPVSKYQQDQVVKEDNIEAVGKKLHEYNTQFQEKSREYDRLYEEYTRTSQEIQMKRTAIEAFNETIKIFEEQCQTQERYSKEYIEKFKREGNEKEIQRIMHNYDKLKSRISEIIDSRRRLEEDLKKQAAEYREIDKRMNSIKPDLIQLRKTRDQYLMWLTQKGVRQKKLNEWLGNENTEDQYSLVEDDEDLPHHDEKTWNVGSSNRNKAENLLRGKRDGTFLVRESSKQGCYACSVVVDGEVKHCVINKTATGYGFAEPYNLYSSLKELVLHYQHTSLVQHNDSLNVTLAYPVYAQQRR
observable: pIC50
Please note pIC50 is a logarithmic value: minus log10 of concentration in mol/L. Answer with that number alone.

Quick one: pIC50 for O=c1cc(N2CCOCC2)oc2c(-c3ccccc3)cccc12 [LY294002, reference compound] ?
5.46

* * *

biological target: PI3Kα (Homo sapiens); assay: PI3K isoform selectivity, chemiluminescence kinase assay (α); conditions: isoform selectivity experiment
Sequence (P42336 whole entry, species assumed, one chain of several, canonical isoform): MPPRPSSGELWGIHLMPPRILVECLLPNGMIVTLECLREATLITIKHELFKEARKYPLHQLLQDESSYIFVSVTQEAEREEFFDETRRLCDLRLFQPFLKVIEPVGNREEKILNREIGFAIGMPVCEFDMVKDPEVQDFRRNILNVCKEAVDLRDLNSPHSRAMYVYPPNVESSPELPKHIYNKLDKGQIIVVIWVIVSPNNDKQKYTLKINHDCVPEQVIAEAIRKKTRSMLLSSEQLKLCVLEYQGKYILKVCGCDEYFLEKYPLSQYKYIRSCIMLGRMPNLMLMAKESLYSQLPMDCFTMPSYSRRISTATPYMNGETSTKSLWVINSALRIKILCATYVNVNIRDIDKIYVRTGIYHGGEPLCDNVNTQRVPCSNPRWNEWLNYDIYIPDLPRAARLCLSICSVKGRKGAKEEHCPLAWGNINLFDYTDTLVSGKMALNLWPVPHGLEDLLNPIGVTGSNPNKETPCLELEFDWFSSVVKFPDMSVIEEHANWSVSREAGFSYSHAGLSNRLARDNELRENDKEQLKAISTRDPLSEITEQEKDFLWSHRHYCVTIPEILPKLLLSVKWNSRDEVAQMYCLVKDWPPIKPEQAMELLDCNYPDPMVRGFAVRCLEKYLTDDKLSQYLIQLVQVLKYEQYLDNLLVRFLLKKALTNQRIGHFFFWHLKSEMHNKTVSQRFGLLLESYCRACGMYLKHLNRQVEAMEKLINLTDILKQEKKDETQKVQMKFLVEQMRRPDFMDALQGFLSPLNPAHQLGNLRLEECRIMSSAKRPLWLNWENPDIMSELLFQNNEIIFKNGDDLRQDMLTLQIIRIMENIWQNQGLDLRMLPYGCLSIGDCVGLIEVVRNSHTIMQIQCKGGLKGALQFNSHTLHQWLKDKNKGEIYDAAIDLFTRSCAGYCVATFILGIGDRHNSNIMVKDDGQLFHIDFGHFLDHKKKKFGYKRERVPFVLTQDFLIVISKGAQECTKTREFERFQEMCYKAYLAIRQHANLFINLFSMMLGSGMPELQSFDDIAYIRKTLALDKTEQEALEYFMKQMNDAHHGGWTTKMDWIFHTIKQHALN
observable: pIC50
Please note pIC50 is a logarithmic value: minus log10 of concentration in mol/L. Answer with that number alone.

Quick one: pIC50 for C/C(=N\Nc1cn[nH]c(=O)c1Br)c1ccccc1 [Compound 10] ?
4.12
